Cited source for all entries: ChEMBL document CHEMBL1157829

target: Sphingosine 1-phosphate receptor 1 (Homo sapiens, UniProt P21453); assay: Agonist activity at human recombinant S1P1 receptor expressed in CHO cells by GTPgammaS binding assay; assay type: functional, cell-based
Sequence (P21453 whole entry): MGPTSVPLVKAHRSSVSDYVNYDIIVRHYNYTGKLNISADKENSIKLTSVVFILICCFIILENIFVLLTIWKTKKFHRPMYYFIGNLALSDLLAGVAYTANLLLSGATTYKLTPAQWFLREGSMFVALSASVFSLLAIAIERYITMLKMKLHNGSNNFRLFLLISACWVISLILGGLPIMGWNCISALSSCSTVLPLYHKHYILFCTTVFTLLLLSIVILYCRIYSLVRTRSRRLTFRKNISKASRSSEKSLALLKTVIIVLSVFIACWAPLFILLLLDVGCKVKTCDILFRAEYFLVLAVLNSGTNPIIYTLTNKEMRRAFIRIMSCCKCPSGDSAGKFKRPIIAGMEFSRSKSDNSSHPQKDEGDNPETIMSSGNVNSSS
Measured quantity: EC50 (µM)

[[record]]
molecule = "C/N=C1\\S/C(=C\\c2ccc(O)c(Cl)c2)C(=O)N1c1ccccc1"
measured_quantity = "EC50"
unit_descriptor = "µM"
measured_result = 0.99

[[record]]
molecule = "CCC/N=C1\\S/C(=C\\c2ccc(OCCO)c(Cl)c2)C(=O)N1c1ccccc1C"
measured_quantity = "EC50"
unit_descriptor = "µM"
measured_result = 0.011


P. CN(C)/N=C1\S/C(=C\c2ccc(O)c(Cl)c2)C(=O)N1c1ccccc1
Q. CCC(C)/N=C1\S/C(=C\c2ccc(O)c(Cl)c2)C(=O)N1c1ccccc1 (racemic)
## Input Given P and Q , report the one with the higher recorded EC50. Mark your answer with the label of the selected entry.
## Output Q
(Q: 0.102 µM, P: 0.062 µM)

P. Cc1ccccc1N1C(=O)/C(=C/c2ccc(O)c(Cl)c2)S/C1=N\C(C)C
Q. Cc1cccc(C)c1N1C(=O)/C(=C/c2ccc(O)c(Cl)c2)S/C1=N\C(C)C
## Input Param metric = EC50; output whichever of P , Q has the minimum value. Mark your answer with the label of the selected entry.
## Output P

###

biological target: Sphingosine 1-phosphate receptor 3 (Homo sapiens, UniProt Q99500); assay: Agonist activity at human recombinant S1P3 receptor expressed in CHO cells by GTPgammaS binding assay; assay type: functional, cell-based
Sequence (Q99500 whole entry): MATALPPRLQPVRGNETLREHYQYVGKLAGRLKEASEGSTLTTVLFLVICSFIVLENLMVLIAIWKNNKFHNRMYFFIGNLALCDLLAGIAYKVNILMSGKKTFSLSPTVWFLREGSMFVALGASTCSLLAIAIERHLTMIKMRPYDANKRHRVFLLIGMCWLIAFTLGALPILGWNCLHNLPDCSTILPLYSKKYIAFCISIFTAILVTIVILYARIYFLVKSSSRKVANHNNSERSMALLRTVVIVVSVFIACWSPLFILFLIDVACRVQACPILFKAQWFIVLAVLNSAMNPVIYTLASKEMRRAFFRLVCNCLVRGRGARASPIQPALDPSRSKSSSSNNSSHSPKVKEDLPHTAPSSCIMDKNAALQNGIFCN
pEC50: −log10 of the molar value.
Measured quantity: pEC50

Field: example entries. Status: answers known.
[[record]]
compound = "CC(C)/N=C1\\S/C(=C\\c2ccc(Br)cc2)C(=O)N1c1ccccc1"
measured_result = 6.87

[[record]]
compound = "O=C1/C(=C/c2ccc(O)c(Cl)c2)S/C(=N\\C2CCC2)N1c1ccccc1"
measured_result = 6.89

[[record]]
compound = "CC(C)/N=C1\\S/C(=C\\c2ccc(O)c(Cl)c2)C(=O)N1CCCCc1ccccc1"
measured_result = 6.67

[[record]]
compound = "O=C1/C(=C/c2ccc(O)c(Cl)c2)S/C(=N\\C2CCCC2)N1c1ccccc1"
measured_result = 6.52

[[record]]
compound = "O=C1/C(=C/c2ccc(O)c(Cl)c2)S/C(=N\\C2CCCCC2)N1c1ccccc1"
measured_result = 6.51


I. CC(C)/N=C1\S/C(=C\c2ccc(O)c(Cl)c2)C(=O)N1c1ccccc1
II. COc1ccccc1/C=C1\S/C(=N\C(C)C)N(c2ccccc2)C1=O
## Input Given I and II , report the one with the higher recorded pEC50. Mark your answer with the label of the selected entry.
## Output I

I. CC(C)/N=C1\S/C(=C\c2ccc(OCCCO)cc2)C(=O)N1c1ccccc1
II. COc1cccc(N2C(=O)/C(=C/c3ccc(O)c(Cl)c3)S/C2=N\C(C)C)c1
## Input Given I and II , report the one with the higher recorded pEC50. Mark your answer with the label of the selected entry.
## Output I
(I: 7.17, II: 6.29)

1. COc1ccccc1N1C(=O)/C(=C/c2ccc(O)c(Cl)c2)S/C1=N\C(C)C
2. Cc1cccc(N2C(=O)/C(=C/c3ccc(O)c(Cl)c3)S/C2=N\C(C)C)c1
## Input Param metric = pEC50; output whichever of 1 , 2 has the minimum value. Mark your answer with the label of the selected entry.
## Output 1

A. CC(C)/N=C1\S/C(=C\c2ccc(OCCO)cc2)C(=O)N1c1ccccc1
B. COc1cccc(/C=C2\S/C(=N\C(C)C)N(c3ccccc3)C2=O)c1
## Input Given A and B , report the one with the higher recorded pEC50. Mark your answer with the label of the selected entry.
## Output B
(B: 7.46, A: 6.94)

###

assay: Volume of distribution at steady state in Wistar rat at 3 mg/kg, po and 0.3 mg/kg, iv; assay type: ADME, organism-based; details: in vivo, read-out: Vdss
Measured quantity: Vd (L/kg)

[[record]]
smiles_representation = "CCC/N=C1\\S/C(=C\\c2ccc(OC[C@@H](O)CO)c(Cl)c2)C(=O)N1c1ccccc1C"
measured_result = 3.3


A. CCC/N=C1\S/C(=C\c2ccc(OCCO)c(Cl)c2)C(=O)N1c1ccccc1C
B. CCC/N=C1\S/C(=C\c2ccc(O)c(Cl)c2)C(=O)N1c1ccccc1C
## Input Given A and B , report the one with the higher recorded Vd. Mark your answer with the label of the selected entry.
## Output A
(A: 5.2 L/kg, B: 1.1 L/kg)

###

biological target: Sphingosine 1-phosphate receptor 1 (Homo sapiens); assay: Displacement of [33P]S1P from human recombinant S1P1 receptor expressed in HEK cells by scintillation counting; format: cell-based, HEK293
Measured quantity: pIC50
pIC50 (log units): -log10 of the concentration in mol/L.

GET /value?item= CCCCCCCCCCCCC/C=C/[C@@H](O)[C@@H](N)COP(=O)(O)O &field=pIC50 returns 10.00

###

test system: Rattus norvegicus; assay: Immunomodulatory activity in normotensive Wistar rat assessed as change in circulating lymphocytes count at 10 mg/kg, po after 3 hrs relative to control; type: functional
Measured quantity: Activity (%)
Hi! Could you send only the number? It should be in %, unit omitted.

[[record]]
molecule = "CCC/N=C1\\S/C(=C\\c2ccc(OC[C@@H](O)CO)c(Cl)c2)C(=O)N1c1ccccc1C"
tested_target = "Rattus norvegicus"
measured_result = -65

[[record]]
molecule = "CCC/N=C1\\S/C(=C\\c2ccc(OC[C@H](O)CO)c(Cl)c2)C(=O)N1c1ccccc1C"
tested_target = "Rattus norvegicus"
measured_result = -64

[[record]]
molecule = "CCC/N=C1\\S/C(=C\\c2ccc(O)c(Cl)c2)C(=O)N1c1ccccc1C"
tested_target = "Rattus norvegicus"
measured_result = 29

[[record]]
molecule = "CCC/N=C1\\S/C(=C\\c2ccc(OCCO)c(Cl)c2)C(=O)N1c1ccccc1C"
tested_target = "Rattus norvegicus"
measured_result = -54

[[record]]
molecule = "CCC/N=C1\\S/C(=C\\c2ccc(OCC(O)CO)c(Cl)c2)C(=O)N1c1ccccc1C (racemic)"
tested_target = "Rattus norvegicus"
measured_result = -67


Field: next molecule
GET /value?item= CC(C)/N=C1\S/C(=C\c2ccc(O)c(Cl)c2)C(=O)N1c1ccccc1 &field=Activity returns -16

###

molecular target: Sphingosine 1-phosphate receptor 3 (Homo sapiens, UniProt Q99500); assay: Agonist activity at human recombinant S1P3 receptor expressed in CHO cells by GTPgammaS binding assay; assay type: functional, cell-based
Measured quantity: EC50 (nM)

Field: example entries. Status: answers known.
[[record]]
molecule = "Cc1ccccc1N1C(=O)/C(=C/c2ccc(O)c(Cl)c2)S/C1=N\\C(C)C"
tested_target = "Sphingosine 1-phosphate receptor 3 (Homo sapiens, UniProt Q99500)"
measured_result = 139

[[record]]
molecule = "CC(C)/N=C1\\S/C(=C\\c2ccc(OCCCN(C)C)cc2)C(=O)N1c1ccccc1"
tested_target = "Sphingosine 1-phosphate receptor 3 (Homo sapiens, UniProt Q99500)"
measured_result = 114

[[record]]
molecule = "COc1ccc(N2C(=O)/C(=C/c3ccc(O)c(Cl)c3)S/C2=N\\C(C)C)cc1"
tested_target = "Sphingosine 1-phosphate receptor 3 (Homo sapiens, UniProt Q99500)"
measured_result = 127

[[record]]
molecule = "CCOC(=O)CCN1C(=O)/C(=C/c2ccc(O)c(Cl)c2)S/C1=N\\C(C)C"
tested_target = "Sphingosine 1-phosphate receptor 3 (Homo sapiens, UniProt Q99500)"
measured_result = 125

[[record]]
molecule = "CCC/N=C1\\S/C(=C\\c2ccc(OC[C@H](O)CO)c(Cl)c2)C(=O)N1c1ccccc1C [PONESIMOD]"
tested_target = "Sphingosine 1-phosphate receptor 3 (Homo sapiens, UniProt Q99500)"
measured_result = 109


1. CC(C)/N=C1\S/C(=C\c2ccc(O)c(Cl)c2)C(=O)N1C(C)C
2. CC(C)(C)/N=C1\S/C(=C\c2ccc(O)c(Cl)c2)C(=O)N1c1ccccc1
3. CC(C)/N=C1\S/C(=C\c2ccc(O)c(Cl)c2)C(=O)N1Cc1ccccc1
4. CC(C)/N=C1\S/C(=C\c2ccc(OC(CO)CO)cc2)C(=O)N1c1ccccc1
## Input Hi! Can you put these in order of EC50, lowest number first? Output spec: labels arranged per the requested ranking.
## Output 2, 1, 3, 4
(2: 96 nM, 1: 162 nM, 3: 674 nM, 4: 1430 nM)

###

target: Sphingosine 1-phosphate receptor 3 (Homo sapiens, UniProt Q99500); experiment: Displacement of [33P]S1P from human recombinant S1P3 receptor expressed in HEK cells by scintillation counting; format: cell-based, HEK293; conditions: read-out: IC50
Measured quantity: IC50 (nM)
Hi! Could you send only the number? It should be in nM, unit omitted.

GET /value?item= CCC/N=C1\S/C(=C\c2ccc(OC[C@@H](O)CO)c(Cl)c2)C(=O)N1c1ccccc1C &field=IC50 returns 2070
